Data credit: the NIST ThermoML archive (doi:10.1016/j.jct.2005.04.010)

test: activity coefficient (dimensionless); of the first substance listed, at infinite dilution; xn = mol fraction of the nth substance listed; settings: 333.15 K; Liquid; Chromatography; x1 = 0

compound	activity coefficient
O [water] + CCCCCCCCn1cc[n+](C)c1.O=S(=O)([N-]S(=O)(=O)C(F)(F)F)C(F)(F)F	2.58
C1=CCCCC1 [cyclohexene] + CCCCCCCCn1cc[n+](C)c1.O=S(=O)([N-]S(=O)(=O)C(F)(F)F)C(F)(F)F	2.29
Cc1ccccc1 [toluene] + CCCCCC[n+]1ccn(C)c1.O=S(=O)([N-]S(=O)(=O)C(F)(F)F)C(F)(F)F	1.08
CCCCCCC [heptane] + CCCCCCCCn1cc[n+](C)c1.O=S(=O)([N-]S(=O)(=O)C(F)(F)F)C(F)(F)F	6.21
Cc1cccc(C)c1 [1,3-dimethylbenzene] + CCCCCC[n+]1ccn(C)c1.O=S(=O)([N-]S(=O)(=O)C(F)(F)F)C(F)(F)F	1.5
CCC(C)=O [butanone] + CCCCCC[n+]1ccn(C)c1.O=S(=O)([N-]S(=O)(=O)C(F)(F)F)C(F)(F)F	0.44
CCCCCCC [heptane] + CCCCCC[n+]1ccn(C)c1.O=S(=O)([N-]S(=O)(=O)C(F)(F)F)C(F)(F)F	9.67

---

activity coefficient for assorted compounds
assay: activity coefficient (dimensionless); of the first substance listed, at infinite dilution; xn = mol fraction of the nth substance listed; conditions: 303.15 K; Liquid; Chromatography; x1 = 0

compound	activity coefficient
CO [methanol] + CCCCCC[n+]1ccn(C)c1.O=S(=O)([N-]S(=O)(=O)C(F)(F)F)C(F)(F)F	1.3
c1ccccc1 [benzene] + CCCCCC[n+]1ccn(C)c1.O=S(=O)([N-]S(=O)(=O)C(F)(F)F)C(F)(F)F	0.75
C=CCCC [1-pentene] + CCCCCC[n+]1ccn(C)c1.O=S(=O)([N-]S(=O)(=O)C(F)(F)F)C(F)(F)F	3.47
Cc1ccccc1C [1,2-dimethylbenzene] + CCCCCCCCn1cc[n+](C)c1.O=S(=O)([N-]S(=O)(=O)C(F)(F)F)C(F)(F)F	0.98
CCCCCCCC [octane] + CCCCCC[n+]1ccn(C)c1.O=S(=O)([N-]S(=O)(=O)C(F)(F)F)C(F)(F)F	15.2
CCCCCCC [heptane] + CCCCCCCCn1cc[n+](C)c1.O=S(=O)([N-]S(=O)(=O)C(F)(F)F)C(F)(F)F	6.82
C=CCCCCC [1-heptene] + CCCCCCCCn1cc[n+](C)c1.O=S(=O)([N-]S(=O)(=O)C(F)(F)F)C(F)(F)F	4.29

---

activity coefficient for assorted compounds
test: activity coefficient (dimensionless); of the first substance listed, at infinite dilution; xn = mol fraction of the nth substance listed; settings: 333.15 K; Liquid; Chromatography; x1 = 0

compound	activity coefficient
CCCCC [pentane] + CCCCCCCCn1cc[n+](C)c1.O=S(=O)([N-]S(=O)(=O)C(F)(F)F)C(F)(F)F	3.6
C=CCCCC [hex-1-ene] + CCCCCC[n+]1ccn(C)c1.O=S(=O)([N-]S(=O)(=O)C(F)(F)F)C(F)(F)F	4.44
CC(C)O [propan-2-ol] + CCCCCC[n+]1ccn(C)c1.O=S(=O)([N-]S(=O)(=O)C(F)(F)F)C(F)(F)F	1.33
C=CCCC [1-pentene] + CCCCCC[n+]1ccn(C)c1.O=S(=O)([N-]S(=O)(=O)C(F)(F)F)C(F)(F)F	3.31
CCCCCC [hexane] + CCCCCCCCn1cc[n+](C)c1.O=S(=O)([N-]S(=O)(=O)C(F)(F)F)C(F)(F)F	4.8
CO [methanol] + CCCCCC[n+]1ccn(C)c1.O=S(=O)([N-]S(=O)(=O)C(F)(F)F)C(F)(F)F	1.02
C=CCCCCCC [oct-1-ene] + CCCCCC[n+]1ccn(C)c1.O=S(=O)([N-]S(=O)(=O)C(F)(F)F)C(F)(F)F	7.9
Cc1ccccc1 [toluene] + CCCCCCCCn1cc[n+](C)c1.O=S(=O)([N-]S(=O)(=O)C(F)(F)F)C(F)(F)F	0.85
Cc1cccc(C)c1 [1,3-dimethylbenzene] + CCCCCCCCn1cc[n+](C)c1.O=S(=O)([N-]S(=O)(=O)C(F)(F)F)C(F)(F)F	1.19
C1CCCCC1 [cyclohexane] + CCCCCCCCn1cc[n+](C)c1.O=S(=O)([N-]S(=O)(=O)C(F)(F)F)C(F)(F)F	3.29
CC(C)OC(C)C [diisopropyl ether] + CCCCCC[n+]1ccn(C)c1.O=S(=O)([N-]S(=O)(=O)C(F)(F)F)C(F)(F)F	2.92
CCO [ethanol] + CCCCCCCCn1cc[n+](C)c1.O=S(=O)([N-]S(=O)(=O)C(F)(F)F)C(F)(F)F	1.12
Cc1ccc(C)cc1 [1,4-dimethylbenzene] + CCCCCCCCn1cc[n+](C)c1.O=S(=O)([N-]S(=O)(=O)C(F)(F)F)C(F)(F)F	1.16
CCCCCCCC [octane] + CCCCCCCCn1cc[n+](C)c1.O=S(=O)([N-]S(=O)(=O)C(F)(F)F)C(F)(F)F	7.82
